Source: PubChem BioAssay AID449762

IC90 values by entry
- Test system: M. tuberculosis H37Rv growth inhibition, 7H9 media
- test.summary: M. tuberculosis growth inhibition, HTS (AID 449762);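 further: bacterial growth assessed after seven days of incubation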
- test.conditions: measured here: IC90 growth inhibition
Records with an inconclusive call do not appear.
quantity.measured: IC90 (µM)

# molecule, sign.qualifier, result.value
rows = [
    ("COc1ccc(N/C=C/C(=O)c2sc(-c3ccccc3)nc2C)cc1", "=", 55.4),
    ("CCCCN1C(=O)C2(NNc3ccccc3O2)c2ccccc21 (stereo unspecified)", ">", 100),
    ("CCCCn1c(NCc2ccc3c(c2)OCO3)nc2ccccc21", "=", 31.1),
    ("O=C(Nc1nc2ccc(F)cc2s1)C1CCN(S(=O)(=O)c2cc([N+](=O)[O-])ccc2Cl)CC1", "=", 16),
    ("CCOC(=O)c1cnc(Nc2nc3ccccc3o2)nc1CSC(=S)N(CC)CC", "=", 25.4),
    ("NNC(=S)Nc1ccccc1Cl", "=", 27.8),
    ("C/C(=C\\C(=S)Nc1ccccc1)Nc1ccc2ccccc2c1", "=", 52.9),
    ("CCCc1ccc(NC(=O)C2CCN(c3cnccn3)CC2)cc1", "=", 78.7),
    ("Cc1ccc(-c2cc(-c3ccccc3C)[nH]n2)c(O)c1", ">", 100),
    ("COCCCN=C1NN=C(c2cc(C)n(Cc3ccco3)c2C)CS1", "=", 87.4),
    ("CCn1c2ccccc2c2cc(CNCc3ccc(OC)cc3OC)ccc21", "=", 14.1),
    ("Clc1ccc2c(c1)C(c1ccccc1Cl)=NCc1nnc(N3CCN(CCOc4ccccc4)CC3)n1-2", "=", 48),
    ("CCOC(=O)CSc1snnc1-c1ccccc1", "=", 59.6),
    ("Cc1ccc(OCCCCNC2CCCC(C)C2C)c(C)c1 (stereo unspecified)", "=", 24.2),
    ("C/C(=N\\Nc1ccc([N+](=O)[O-])cc1)c1cccc(N)c1", "=", 88.3),
    ("COc1ccc(C2=NN(C(=O)COC(=O)c3ccc(S(C)(=O)=O)c([N+](=O)[O-])c3)C(c3ccco3)C2)cc1 (stereo unspecified)", "=", 14.9),
    ("Oc1ccccc1N=Cc1ccc[nH]1", "=", 7.96),
    ("N#C/C(=N/Nc1ccc(OC(F)(F)F)cc1)C(N)=S", "=", 3.43),
    ("Cc1cc(C)n(-c2ccc(C(=O)Oc3ccc4c(c3)OCO4)cc2)n1", "=", 13.3),
    ("CC1=NN(c2ccc(C)c(C)c2)C(=O)/C1=C\\C=C\\c1ccc([N+](=O)[O-])o1", "=", 15.5),
    ("CC1CCN(C(=O)c2ccc(-c3ccccc3Cl)o2)CC1", "=", 65.8),
    ("Cc1nnc(-c2ccccc2)c(=O)n1/N=C/c1c(O)ccc2ccccc12", "=", 27.3),
    ("Cc1cc(C(=O)COC(=O)C2=COCCO2)c(C)n1-c1cccc(F)c1", ">", 100),
    ("Cc1[nH]c2ccccc2c1/C=N/Nc1nc(Nc2ccccc2)nc(N2CCOCC2)n1", "=", 10),
    ("CNC(CC(C)C)C(=O)NC1C(=O)NC(CC(N)=O)C(=O)NC2C(=O)NC3C(=O)NC(C(=O)NC(C(=O)O)c4cc(O)cc(O)c4-c4cc3ccc4O)C(O)c3ccc(c(Cl)c3)Oc3cc2cc(c3OC2OC(CO)C(O)C(O)C2OC2C[C@](C)(N)C(O)C(C)O2)Oc2ccc(cc2Cl)C1O (stereo partly specified)", "=", 4.42),
    ("CC(C)C[C@H]1C(=O)N2CCC[C@H]2[C@]2(O)O[C@](NC(=O)C3C=C4c5cccc6[nH]c(Br)c(c56)C[C@H]4N(C)C3)(C(C)C)C(=O)N12 (stereo partly specified)", ">", 100),
    ("c1ccc(Cn2c(CNc3nc4ccccc4n3CCN3CCCCC3)nc3ccccc32)cc1", "=", 43.9),
    ("CCCOP(=O)(OCCC)c1c([N+](=O)[O-])cc(C(F)(F)F)cc1[N+](=O)[O-]", "=", 6.52),
    ("COc1ccccc1N(O)C1CC(=O)N(c2ccc(Br)cc2)C1=O (stereo unspecified)", "=", 32.3),
    ("COc1cccc(COC(=O)c2ccc3c(=O)n4c(nc3c2)CCC4)c1OC", "=", 50.6),
    ("CCCCNC(=O)Nc1nnc(-c2ccc(OCC)cc2)o1", ">", 100),
    ("O=C(Nc1cc(C(F)(F)F)ccc1-n1cncn1)c1ccc([N+](=O)[O-])o1", "=", 32.5),
    ("O=S(=O)(c1ccc(Cl)cc1)c1snnc1-c1ccccc1", "=", 51.8),
    ("O=C(c1cc2nc(-c3ccc(F)cc3)cc(C(F)(F)F)n2n1)N1CCCCC1c1cccnc1 (stereo unspecified)", "=", 31.4),
    ("N#Cc1c(-c2ccccc2)c(-c2ccccc2)nn(CC(=O)NNC(=O)Nc2ccc(Cl)c(Cl)c2)c1=O", "=", 55.5),
    ("Cc1ccc(C2C3=C(CC(C)(C)CC3=O)N=C3c4ccccc4C(=O)C32)cc1 (stereo unspecified)", "=", 90.7),
    ("c1ccc(CN2CCC(Nc3nc(-c4ccccc4)nc4ccccc34)CC2)cc1", "=", 16.3),
    ("C=CCn1cccc(/C=C/C(=O)c2ccc(C(C)(C)C)cc2)c1=S", "=", 56.5),
    ("O=C(COC(=O)C1CC2CCCC(C1)C2=O)NNC(=O)c1ccccc1F (stereo unspecified)", ">", 100),
    ("CC(c1nc2ccccc2c(=O)[nH]1)N(C)CCOc1ccc(Cl)cc1 (stereo unspecified)", "=", 51.7),
    ("CSC1=NC(C)(C)C=C(/C=C/c2ccc(Cl)cc2)N1", "=", 44.5),
]

###

- System: M. tuberculosis H37Rv growth inhibition, 7H9 media
- test.summary: M. tuberculosis growth inhibition, HTS (AID 449762);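 further: bacterial growth assessed after seven days of incubation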
- test.conditions: measured here: IC90 growth inhibition
Results filed as inconclusive are left out.

# molecule, sign.qualifier, IC90, µM
rows = [
    ("O=S1(=O)N(CCN2CC=C(c3c[nH]c4cc(F)ccc34)CC2)c2cccc3c2N1CCC3", "=", 11.7),
    ("CCCSC1=C(C#N)C(c2ccc(Cl)cc2Cl)CC(=O)N1 (configuration not stated)", ">", 25),
    ("CC1(C)C2CCC1(C)C(OCC[N+](C)(C)CC(=O)OC1CCCCC1)C2 (configuration not stated)", "=", 12.2),
    ("O=c1[nH][nH]c(-c2ccccc2O)c1C(C[N+](=O)[O-])c1cccc(Cl)c1 (configuration not stated)", ">", 100),
    ("COc1cccc2c1C(=O)c1c(O)c3c(c(O)c1C2=O)C[C@@](O)(C(=O)CO)C[C@@H]3O[C@H]1C[C@H](N)[C@@H](O)[C@H](C)O1", "=", 4.86),
    ("O=C(NNc1nc2ccccc2s1)c1ccccc1F", ">", 100),
    ("CN(C)[C@@H]1C(=O)C(C(N)=O)=C(O)[C@@]2(O)C(=O)C3=C(O)c4c(O)cccc4[C@@](C)(O)C3C[C@@H]12 (some centres not stated)", "=", 15),
    ("CCN1/C(=C/C=C/c2oc3ccc(-c4ccccc4)cc3[n+]2CC)Oc2ccc(-c3ccccc3)cc21", "=", 4.74),
    ("O=C(c1ccc(Br)cc1)C(CN1CCOCC1)c1ccccc1 (configuration not stated)", "=", 9.41),
    ("CCc1ccc(N=Nc2ccc(O)c3[nH]cnc23)cc1", ">", 100),
    ("Cc1cc(C(=O)CCl)c(C)n1-c1cccc([N+](=O)[O-])c1", "=", 1.54),
    ("O=C(CCl)Nc1nccs1", "=", 4.71),
    ("CNC(CC(=O)c1ccc([N+](=O)[O-])cc1)C(Cl)(Cl)Cl (configuration not stated)", "=", 5.81),
    ("COc1ccc(NCc2nnc(SCC(=O)c3ccc(OC)cc3)o2)cc1", "=", 13.4),
    ("CCc1nc2ccccc2c(C(=O)Nc2cc(C)ccc2C)c1C", ">", 100),
    ("N#Cc1ccc(OCC(O)CN2CCN(c3ncc(C(F)(F)F)cc3Cl)CC2)cc1 (configuration not stated)", "=", 24),
    ("O=C(/C=C/c1c(F)cccc1Cl)c1ccc(F)cc1", "=", 34.4),
    ("O=C(Nc1ccc(C2=NCCN2)cc1)c1ccc(Cl)c(C(=O)Nc2ccc(C3=NCCN3)cc2)c1", "=", 12.3),
    ("CCN(CC)C(=O)Oc1ccc2c(=O)c(-c3ccc(OC)cc3)coc2c1", ">", 100),
    ("Cc1ccc(C(=O)OCc2nnc(-c3ccccc3)o2)s1", "=", 33.5),
    ("CC(C)(C)NC(=O)C(=O)NNC(=O)c1ccc(C(C)(C)C)cc1", "=", 17.6),
    ("COC1=CC(=O)c2ccccc2C1=O", "=", 21.9),
]
